- test target: C. perfringens sialidase (CpNanI) (Clostridium perfringens, UniProt A0A0H2YQR1)
- Sequence (A0A0H2YQR1 27-694 limits assumed): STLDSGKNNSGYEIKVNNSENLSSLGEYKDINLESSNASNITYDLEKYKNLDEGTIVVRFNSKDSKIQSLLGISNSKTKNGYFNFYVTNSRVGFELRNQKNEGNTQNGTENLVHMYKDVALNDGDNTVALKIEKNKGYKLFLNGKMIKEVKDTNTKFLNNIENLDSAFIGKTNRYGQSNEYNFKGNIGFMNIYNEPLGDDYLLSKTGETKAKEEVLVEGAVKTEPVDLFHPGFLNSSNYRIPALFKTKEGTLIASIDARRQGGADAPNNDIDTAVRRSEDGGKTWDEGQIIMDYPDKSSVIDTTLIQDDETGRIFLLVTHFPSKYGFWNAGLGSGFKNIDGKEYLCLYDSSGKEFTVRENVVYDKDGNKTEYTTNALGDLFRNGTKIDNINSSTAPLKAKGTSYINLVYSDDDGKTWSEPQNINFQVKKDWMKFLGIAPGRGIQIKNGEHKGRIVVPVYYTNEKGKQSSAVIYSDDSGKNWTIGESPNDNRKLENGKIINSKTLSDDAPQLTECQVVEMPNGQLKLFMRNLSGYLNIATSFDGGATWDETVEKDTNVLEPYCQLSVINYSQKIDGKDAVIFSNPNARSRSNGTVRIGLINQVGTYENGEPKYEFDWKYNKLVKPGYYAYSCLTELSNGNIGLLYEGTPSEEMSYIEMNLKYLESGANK
- method notes: biochemical
- assay setup: read-out: Percentage inhibition, C. perfringens
outcome measure: inhibition at 100 µM (%)
Reply with just the number (in %).

structure smiles string: [N-]=[N+]=N[C@@H]1[C@@H](O)[C@H](F)[C@](F)(C(=O)O)O[C@H]1[C@H](O)[C@H](O)CO
outcome measure: inhibition at 100 µM
meas value: 29.8
--
structure smiles string: CC(=O)N[C@@H]1[C@@H](O)[C@H](F)[C@](F)(C(=O)O)O[C@H]1[C@H](O)[C@H](O)CN=[N+]=[N-]
outcome measure: inhibition at 100 µM
meas value: 99.9

// switching to the query molecule
Entry CC(=O)N[C@@H]1[C@@H](O)[C@@H](F)[C@](F)(C(=O)O)O[C@H]1[C@H](O)[C@H](O)CN=[N+]=[N-] , inhibition at 100 µM reported as 99.9

----------
Listed next: entries and their corresponding inhibition at 100 µM.
- test target: hNEU2 (Homo sapiens)
- Sequence (Q9Y3R4 whole entry): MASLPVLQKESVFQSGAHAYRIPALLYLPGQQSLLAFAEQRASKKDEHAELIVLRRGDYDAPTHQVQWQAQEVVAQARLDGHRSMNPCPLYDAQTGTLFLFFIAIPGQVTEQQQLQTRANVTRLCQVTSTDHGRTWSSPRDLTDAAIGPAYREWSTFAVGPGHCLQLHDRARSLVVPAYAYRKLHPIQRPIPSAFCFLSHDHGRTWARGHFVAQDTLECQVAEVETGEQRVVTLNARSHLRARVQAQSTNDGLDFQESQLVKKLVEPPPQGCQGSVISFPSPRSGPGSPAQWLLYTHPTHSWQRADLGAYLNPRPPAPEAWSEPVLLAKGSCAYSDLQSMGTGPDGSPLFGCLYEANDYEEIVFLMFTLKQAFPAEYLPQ
- method notes: Sialidase inhibition assay
- Format: biochemical
- assay setup: read-out: Percentage inhibition, hNEU2
Form entry: value (%) — number only.

structure smiles string: [N-]=[N+]=N[C@@H]1[C@@H](O)[C@H](F)[C@](F)(C(=O)O)O[C@H]1[C@H](O)[C@H](O)CO
test target: hNEU2 (Homo sapiens)
inhibition at 100 µM [%]: 37.5
//
structure smiles string: CC(=O)N[C@@H]1[C@@H](O)[C@H](F)[C@](F)(C(=O)O)O[C@H]1[C@H](O)[C@H](O)CO
test target: hNEU2 (Homo sapiens)
inhibition at 100 µM [%]: 75.4
//
structure smiles string: CC(=O)N[C@@H]1[C@@H](O)[C@@H](F)[C@](F)(C(=O)O)O[C@H]1[C@H](O)[C@H](O)CO
test target: hNEU2 (Homo sapiens)
inhibition at 100 µM [%]: 69.7
//
structure smiles string: O=C(CO)N[C@@H]1[C@@H](O)[C@H](F)[C@](F)(C(=O)O)O[C@H]1[C@H](O)[C@H](O)CO
test target: hNEU2 (Homo sapiens)
inhibition at 100 µM [%]: 80.4
//
structure smiles string: CC(=O)N[C@@H]1[C@@H](O)[C@@H](F)[C@](F)(C(=O)O)O[C@H]1[C@H](O)[C@H](O)CN=[N+]=[N-]
test target: hNEU2 (Homo sapiens)
inhibition at 100 µM [%]: 1.5

Quick note, inhibition at 100 µM for CC(=O)N[C@@H]1[C@@H](O)[C@H](F)[C@](F)(C(=O)O)O[C@H]1[C@H](O)[C@H](O)CN=[N+]=[N-] landed at 82.3

----------
- test target: SpNanA (Streptococcus pneumoniae, UniProt P62575)
- Sequence (P62575 54-1035): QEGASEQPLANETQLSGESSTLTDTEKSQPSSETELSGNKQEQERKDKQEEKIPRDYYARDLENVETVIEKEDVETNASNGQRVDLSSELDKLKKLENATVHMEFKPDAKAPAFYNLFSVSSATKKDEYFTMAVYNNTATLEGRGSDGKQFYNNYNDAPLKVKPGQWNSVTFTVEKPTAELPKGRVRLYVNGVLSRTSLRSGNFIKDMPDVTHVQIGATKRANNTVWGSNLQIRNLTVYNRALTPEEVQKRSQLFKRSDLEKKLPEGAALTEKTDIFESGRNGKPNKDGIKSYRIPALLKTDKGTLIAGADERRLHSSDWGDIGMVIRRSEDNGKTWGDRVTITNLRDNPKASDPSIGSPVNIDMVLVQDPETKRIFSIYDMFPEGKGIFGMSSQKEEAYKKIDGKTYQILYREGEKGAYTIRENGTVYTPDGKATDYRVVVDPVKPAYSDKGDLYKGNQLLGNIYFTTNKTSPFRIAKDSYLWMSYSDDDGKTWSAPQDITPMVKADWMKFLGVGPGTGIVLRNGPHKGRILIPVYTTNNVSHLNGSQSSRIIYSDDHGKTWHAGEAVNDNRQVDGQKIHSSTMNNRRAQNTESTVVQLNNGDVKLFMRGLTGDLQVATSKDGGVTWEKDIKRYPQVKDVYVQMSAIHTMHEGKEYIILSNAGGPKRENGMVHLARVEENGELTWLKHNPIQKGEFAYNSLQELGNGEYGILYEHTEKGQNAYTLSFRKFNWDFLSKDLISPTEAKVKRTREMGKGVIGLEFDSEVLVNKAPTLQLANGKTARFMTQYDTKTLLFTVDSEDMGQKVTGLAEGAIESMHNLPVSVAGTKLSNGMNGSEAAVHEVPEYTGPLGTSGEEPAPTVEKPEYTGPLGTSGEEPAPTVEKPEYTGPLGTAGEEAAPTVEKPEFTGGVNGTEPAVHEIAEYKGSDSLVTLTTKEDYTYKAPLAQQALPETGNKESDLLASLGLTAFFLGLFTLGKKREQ
- method notes: biochemical
outcome measure: IC50 (µM)
Give the value, in units of µM, as a plain number.

These solved cases illustrate the format of a correct answer.
structure smiles string: CC(=O)N[C@@H]1[C@@H](O)[C@H](F)[C@](F)(C(=O)O)O[C@H]1[C@H](O)[C@H](O)CN=[N+]=[N-]
measurement units: µM
meas value: 0.21
//
structure smiles string: CC(=O)N[C@@H]1[C@@H](O)[C@@H](F)[C@](F)(C(=O)O)O[C@H]1[C@H](O)[C@H](O)CN=[N+]=[N-]
measurement units: µM
meas value: 0.033

Now examine the next entry.
Recorded IC50 (compound CC(=O)N[C@@H]1[C@@H](O)[C@@H](F)[C@](F)(C(=O)O)O[C@H]1[C@H](O)[C@H](O)CO ): 0.13

----------
- test target: C. perfringens sialidase (CpNanI) (Clostridium perfringens, UniProt A0A0H2YQR1)
- method notes: biochemical
- assay setup: read-out: Percentage inhibition, C. perfringens
The molecules listed here are annotated with their inhibition at 100 µM.
Could you give me the number in %? Just the number is fine.

Observe how each entry below is paired with its result.
structure smiles string: CC(=O)N[C@@H]1[C@@H](O)[C@@H](F)[C@](F)(C(=O)O)O[C@H]1[C@H](O)[C@H](O)CO
inhibition at 100 µM / %: 99.9
//
structure smiles string: O=C(CO)N[C@@H]1[C@@H](O)[C@H](F)[C@](F)(C(=O)O)O[C@H]1[C@H](O)[C@H](O)CO
inhibition at 100 µM / %: 71.6

What the record says about CC(=O)N[C@@H]1[C@@H](O)[C@H](F)[C@](F)(C(=O)O)O[C@H]1[C@H](O)[C@H](O)CO : inhibition at 100 µM is 80.6

----------
Entries and their inhibition at 100 µM values follow.
- test target: SpNanA (Streptococcus pneumoniae, UniProt P62575)
- method notes: biochemical
- assay setup: read-out: Percentage inhibition, SpNanA
Write the number in % without appending the unit.

compound: CC(=O)N[C@@H]1[C@@H](O)[C@@H](F)[C@](F)(C(=O)O)O[C@H]1[C@H](O)[C@H](O)CO [Compound 5]
measurement units: %
inhibition at 100 µM: 99.9

compound: CC(=O)N[C@@H]1[C@@H](O)[C@@H](F)[C@](F)(C(=O)O)O[C@H]1[C@H](O)[C@H](O)CN=[N+]=[N-] [Compound 6]
measurement units: %
inhibition at 100 µM: 99.9

compound: CC(=O)N[C@@H]1[C@@H](O)[C@H](F)[C@](F)(C(=O)O)O[C@H]1[C@H](O)[C@H](O)CN=[N+]=[N-] [Compound 2]
measurement units: %
inhibition at 100 µM: 85.8

compound: CC(=O)N[C@@H]1[C@@H](O)[C@H](F)[C@](F)(C(=O)O)O[C@H]1[C@H](O)[C@H](O)CO [Compound 1]
measurement units: %
inhibition at 100 µM: 99.7

# input for lookup
Short answer for O=C(CO)N[C@@H]1[C@@H](O)[C@H](F)[C@](F)(C(=O)O)O[C@H]1[C@H](O)[C@H](O)CO [Compound 4] : inhibition at 100 µM was 78.4

----------
- test target: SpNanC (Streptococcus pneumoniae, UniProt A0A0H2UQE4)
- method notes: biochemical
- assay setup: read-out: IC50, SpNanC
pIC50: −log10 of the molar value.
outcome measure: pIC50

The compound identified as CC(=O)N[C@@H]1[C@@H](O)[C@H](F)[C@](F)(C(=O)O)O[C@H]1[C@H](O)[C@H](O)CO registered its pIC50 at < 3.00

----------
In this section, each of the molecules is paired with its reported IC50.
- test target: C. perfringens sialidase (CpNanI) (Clostridium perfringens)

// solved cases for IC50 follow
structure smiles string: [N-]=[N+]=N[C@@H]1[C@@H](O)[C@H](F)[C@](F)(C(=O)O)O[C@H]1[C@H](O)[C@H](O)CO
outcome measure: IC50
meas value: > 1000 µM
//
structure smiles string: CC(=O)N[C@@H]1[C@@H](O)[C@@H](F)[C@](F)(C(=O)O)O[C@H]1[C@H](O)[C@H](O)CN=[N+]=[N-]
outcome measure: IC50
meas value: 0.024 µM
//
structure smiles string: CC(=O)N[C@@H]1[C@@H](O)[C@H](F)[C@](F)(C(=O)O)O[C@H]1[C@H](O)[C@H](O)CN=[N+]=[N-]
outcome measure: IC50
meas value: 0.73 µM

Could you now look at the following molecule, please?
IC50 reading for CC(=O)N[C@@H]1[C@@H](O)[C@@H](F)[C@](F)(C(=O)O)O[C@H]1[C@H](O)[C@H](O)CO : 0.18 µM

----------
- test target: PmST1 (Pasteurella multocida, UniProt Q15KI8)
- method notes: biochemical
- assay setup: read-out: Percentage inhibition, PmST1
outcome measure: inhibition at 1000 µM (%)
Your answer is read as %, so omit the unit and give the number.

Input CC(=O)N[C@@H]1[C@@H](O)[C@H](F)[C@](F)(C(=O)O)O[C@H]1[C@H](O)[C@H](O)CN=[N+]=[N-] [Compound 2] . Output inhibition at 1000 µM: 9.3

----------
As shown below, each of these molecules has a reported log10 IC50 value.
- test target: V. cholerae sialidase (Vibrio cholerae serotype O1, UniProt P0C6E9)
- Sequence (P0C6E9 25-781): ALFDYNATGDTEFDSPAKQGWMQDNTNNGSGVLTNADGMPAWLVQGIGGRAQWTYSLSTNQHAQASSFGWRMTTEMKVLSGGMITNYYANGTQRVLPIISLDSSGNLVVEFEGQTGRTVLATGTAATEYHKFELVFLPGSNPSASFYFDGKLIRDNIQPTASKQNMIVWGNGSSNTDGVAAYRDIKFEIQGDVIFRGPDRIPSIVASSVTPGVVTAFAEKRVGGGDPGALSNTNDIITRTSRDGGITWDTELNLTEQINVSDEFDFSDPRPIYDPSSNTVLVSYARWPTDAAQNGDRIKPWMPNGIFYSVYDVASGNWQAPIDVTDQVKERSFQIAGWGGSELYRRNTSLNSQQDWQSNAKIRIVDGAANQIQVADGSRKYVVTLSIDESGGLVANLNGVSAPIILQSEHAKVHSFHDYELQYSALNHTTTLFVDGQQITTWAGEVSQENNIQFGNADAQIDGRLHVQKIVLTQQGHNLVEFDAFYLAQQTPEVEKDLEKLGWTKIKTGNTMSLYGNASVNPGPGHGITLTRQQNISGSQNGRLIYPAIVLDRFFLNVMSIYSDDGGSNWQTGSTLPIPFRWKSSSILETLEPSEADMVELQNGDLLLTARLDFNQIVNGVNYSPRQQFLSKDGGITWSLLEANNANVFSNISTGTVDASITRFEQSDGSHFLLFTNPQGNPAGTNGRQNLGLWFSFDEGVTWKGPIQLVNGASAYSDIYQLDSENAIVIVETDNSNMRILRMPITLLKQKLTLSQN
# log10 transformed; quantity=IC50; unit=µM

structure smiles string: CC(=O)N[C@@H]1[C@@H](O)[C@@H](F)[C@](F)(C(=O)O)O[C@H]1[C@H](O)[C@H](O)CN=[N+]=[N-]
log10 IC50: -0.74
--
structure smiles string: O=C(CO)N[C@@H]1[C@@H](O)[C@H](F)[C@](F)(C(=O)O)O[C@H]1[C@H](O)[C@H](O)CO
log10 IC50: 0.20

# lookup: CC(=O)N[C@@H]1[C@@H](O)[C@@H](F)[C@](F)(C(=O)O)O[C@H]1[C@H](O)[C@H](O)CO on V. cholerae sialidase (Vibrio cholerae serotype O1, UniProt P0C6E9), log10 IC50 = -0.48

Item CC(=O)N[C@@H]1[C@@H](O)[C@H](F)[C@](F)(C(=O)O)O[C@H]1[C@H](O)[C@H](O)CN=[N+]=[N-] ; assay system V. cholerae sialidase (Vibrio cholerae serotype O1, UniProt P0C6E9); log10 IC50 reported as -0.14

Known value: V. cholerae sialidase (Vibrio cholerae serotype O1, UniProt P0C6E9) log10 IC50 of the molecule CC(=O)N[C@@H]1[C@@H](O)[C@H](F)[C@](F)(C(=O)O)O[C@H]1[C@H](O)[C@H](O)CO equals 0.30
